The compounds listed here are annotated with their viability at 28.5 h, 10 µM.
procedure-details: in vitro
condition-set: human, hela cells, % viability
# number only, unit % dropped from output

Some entries whose results are on file:
| compound | value-unit | viability at 28.5 h, 10 µM |
| --- | --- | --- |
| Cc1ccccc1N1CCN(C(=O)c2c(C)oc3cc4c(C(=O)N5CCN(c6ccccc6C)CC5)c(C)oc4cc23)CC1 [CBK264833] | % | 89.2 |
| CN(C)CC(=O)NCc1ccc(-c2nc(-c3ccc(C#N)cc3)cnc2N)cc1 [CBK116506] | % | 92 |
| CCOP(=O)(O)c1c([N+](=O)[O-])cc(C(F)(F)F)cc1[N+](=O)[O-] [CBK261106G] | % | 103 |

The compound listed as O=C(NCO)c1ccccc1O [CBK012717] has a reported viability at 28.5 h, 10 µM of 93.9

# viability at 28.5 h, 10 µM of Oc1ccc(CN2CCN(Cc3ccc(Br)s3)CC2)c2cccnc12 [CBK295645] = 89.5

* * *

procedure-details: in vitro
condition-set: human, hela cells, % viability
viability at 28.5 h, 10 µM values for the compounds below.
Field format: number, assumed %, no unit text.

As a guide, the following entries are already answered.
| compound | viability at 28.5 h, 10 µM, % |
| --- | --- |
| COc1ccc(CNc2nc(C)n[nH]2)cc1Cl | 98.9 |
| CCOC(=O)CSc1nnc(NS(=O)(=O)c2cccc(Cl)c2C)s1 | 104 |
| O=C(NCc1ccc(Cl)cc1)N1CCCC(CO)C1 (centres unmarked) | 96.6 |
| Cn1c(CCN2CCOCC2)nc2cc(NC(=O)c3cccs3)ccc21 | 97.9 |

Entry under test: O=C(NC(=S)Nc1ccc(-c2nc3ncccc3o2)cc1)c1ccc2c(c1)OCCO2 . Its viability at 28.5 h, 10 µM was 96.4

Value of measured viability at 28.5 h, 10 µM for the entry CN(C)CCN(C)c1nc(-c2ccc3[nH]ccc3c2)cn2ccnc12 : 94.4

* * *

procedure-details: in vitro
condition-set: human, hela cells, % viability
Binary call on viability at 28.5 h, 10 µM with cut-off 90%: strictly below means label 1, and equality or higher means label 0.

Past entries and their recorded results:
| compound | assigned-category |
| --- | --- |
| O=C(O)CCC(=O)c1cccc([N+](=O)[O-])c1 [CBK263681] | label 0 |
| Oc1cccc(/C=N/Nc2nncc(-c3ccccc3)n2)c1 [CBK262468] | label 1 |
| Cc1ccc(S(=O)(=O)NCC(=O)Nc2cc3ccccc3c(Br)n2)cc1 [CBK063300] | label 0 |
| CCN(CC)C(=O)C1CCCN(C(=O)NCC2COc3ccccc3O2)C1 (stereo not drawn) [CBK156116] | label 1 |

Request: Check if viability at 28.5 h, 10 µM falls below 90% for Cc1nccn1CC(C)CNc1ccc(C(=O)c2ccccc2)cc1[N+](=O)[O-] (stereo not drawn) [CBK298336] .
Response: label 1

Request: Dear reviewer, please state whether CCOC(=O)c1cccc(NS(=O)(=O)c2c(C)noc2C)c1 [CBK034339] has viability at 28.5 h, 10 µM strictly beneath 90%.
Response: label 0

Request: # strict comparison: is reported viability at 28.5 h, 10 µM < 90%? input = CC(=O)NCc1cccc(-c2cc(COc3ccc4c(c3)OCO4)cnc2-c2ccc(Cl)cc2)c1 [CBK164106A]
Response: label 0

Request: Could you please tell me whether viability at 28.5 h, 10 µM recorded for C[C@H](Nc1cncc(-c2cccs2)n1)c1ccccc1 [CBK065719] is less than 90%?
Response: label 0

* * *

procedure-details: in vitro
condition-set: human, hela cells, % viability
assay-endpoint: viability at 28.5 h, 10 µM
Answer shape: numeric part, then the unit.

Study these solved cases before continuing.
| compound | viability at 28.5 h, 10 µM |
| --- | --- |
| COCC(=O)N1CCc2sccc2C1c1ccc(NC(=O)c2ccccc2F)cc1 (stereo not drawn) | 87.5% |
| C=C(C)Cn1nc(C)c(CN(C)CCN2CCCCC2)c1C | 88.7% |
| Cc1nn(CC(=O)N2CCCC(C)C2)c(=O)c2cc3sccc3n12 (stereo not drawn) | 87.7% |
| S=C(Nc1nc2c(s1)CCCC2)NC1CC1 | 90.1% |
| O=C(CN1Cc2ccccc2C1)N1CCCC1c1nc2ccccc2[nH]1 (stereo not drawn) | 87.9% |

Lab note: measured viability at 28.5 h, 10 µM of O=C(c1cncc(-c2[nH]nnc2-c2ccccc2)c1)N1CCCC1 was 91.7%

* * *

procedure-details: in vitro
condition-set: human, hela cells, % viability
assay-endpoint: viability at 28.5 h, 10 µM (%)
Entry rule: numbers only, all in %.

| molecule | value-unit | viability at 28.5 h, 10 µM |
| --- | --- | --- |
| CN1CC[C@@]2(c3cc(F)cc(F)c3)CCC(=O)CC12 (stereo partly shown) [CBK002500] | % | 110 |
| Cc1ccc(S(=O)(=O)Nc2nnc(C(C)C)s2)cc1 [CBK045528] | % | 108 |
| CC(C)(C)C1=CC2=NC3(CCCCCC3)[C@@H]3C[C@@H](O)[C@@H](O)[C@@H]3N2O1 [CBK303252] | % | 91.9 |
| O=C(Nc1ccnn1Cc1cccs1)c1cc(=O)[nH]c2ccccc12 [CBK295606] | % | 102 |
| COc1ccc(CN2CCOCC2CC(=O)O)cc1Cn1cncn1 (stereo not shown) [CBK307220] | % | 92.7 |
| O=C(O)C1CCCN(C(=O)NCCOc2ccccc2)C1 (stereo not shown) [CBK161366] | % | 115 |
| FC(F)(F)c1ccc(SCc2cccs2)nc1 [CBK103711] | % | 96.3 |
| Cc1ccc(NS(=O)(=O)c2ccc(OCC(=O)N3CCN(C)CC3)c(C)c2)cc1 [CBK267834] | % | 110 |
| CNC(=O)C1(Cc2ccccc2-c2cccs2)CCN(C(=O)Cc2ccccc2)CC1 [CBK285746] | % | 90.8 |

Read the next record carefully.
Reported viability at 28.5 h, 10 µM for CCN(CCC(C)c1ccccc1)CCN(C)C (stereo not shown) [CBK261914] was 94.6

* * *

procedure-details: in vitro
condition-set: human, hela cells, % viability
assay-endpoint: viability at 28.5 h, 10 µM (%)
Answer in %, number only, no unit symbol.

| compound | value-unit | viability at 28.5 h, 10 µM |
| --- | --- | --- |
| COc1cccc(C2CC(=O)Nc3n[nH]cc32)c1OC (centres unmarked) | % | 88.1 |
| CC(=O)NCc1cccc(-c2cc(C(=O)Nc3ccc4c(c3)OCCO4)cnc2N2CCOCC2)c1 [CBK159355C] | % | 90.1 |
| CC(Oc1cccc(Br)c1)C(=O)NCCC(=O)O (centres unmarked) | % | 90.9 |

What the record says about CN1CCN(CC(=O)N/N=C/C2CC=CCC2)CC1 (centres unmarked) : viability at 28.5 h, 10 µM is 89.6

Measured viability at 28.5 h, 10 µM, CC(NC(=O)C1C=CCN1S(C)(=O)=O)c1ccc2c(c1)CCC2 (centres unmarked) : 88.7

* * *

procedure-details: in vitro
condition-set: human, hela cells, % viability
Quick reference: viability at 28.5 h, 10 µM of the listed items.
// return numeric value only (unit: %, not printed)

Solved cases (3 shown):
| compound | viability at 28.5 h, 10 µM [%] |
| --- | --- |
| Cc1cccc(-n2c(CCc3ccccc3)nnc2SCC(=O)c2ccccc2)c1 [CBK266369] | 94 |
| COc1cccc(-c2nc(CC(=O)N3CCC(C(=O)O)CC3)cs2)c1 [CBK286797] | 92.3 |
| CC(=O)c1ccccc1-c1ccc(C(=O)N2CCN(C)CC2)c(NCC2CC2)n1 [CBK076613] | 92.8 |

Given item COc1cc(-c2nccnc2NCCc2ccccn2)cc(OC)c1OC [CBK037307] , the value recorded as its viability at 28.5 h, 10 µM is 91.4

* * *

procedure-details: in vitro
condition-set: human, hela cells, % viability
assay-endpoint: viability at 28.5 h, 10 µM (%)
All answers are understood in %, so give the number only.

| molecule | viability at 28.5 h, 10 µM / % |
| --- | --- |
| COc1ccc(-c2c3c(nc4sc(C(=O)N5CCOCC5)c(N)c24)CC(C)(C)CC3=O)cc1 | 91.7 |
| O=C(CC(CN1CCN(Cc2cccc(Cl)c2)CC1)C(=O)O)Nc1cccc(O)c1 (stereo not drawn) | 88.9 |

Continue with the molecule presented below.
Consider Cc1ccccc1CN1CCN(CC2CC3C=CC2C3)CC1 (stereo not drawn) . Its measured viability at 28.5 h, 10 µM is 88

Values from paper PMC12040169
